- MEASUREMENT_NOTES: Association constant for compound at 31 degree C was determined
- Type: ADME
Measured KA by item
All answers are understood in M⁻¹, so give the number only.

These recorded examples may help you get a feel for the data.
INSERT INTO measurements (compound, measurement_units, obs_value) VALUES
  ('N[C@H]1C(=O)N[C@@H]2Cc3ccc(c(Cl)c3)Oc3cc4cc(c3O)Oc3ccc(cc3Cl)[C@@H](O)[C@@H]3NC(=O)[C@H](NC(=O)[C@@H]4NC(=O)[C@@H](NC2=O)c2cc(O)cc(c2)Oc2cc1ccc2O)c1ccc(O)c(c1)-c1c(O)cc(O)cc1[C@@H](C(=O)O)NC3=O', 'M⁻¹', 180000),
  ('O=C1Cc2ccc(O)c(c2)Oc2cc(O)cc(c2)[C@@H]2NC(=O)[C@@H](Cc3ccc(c(Cl)c3)Oc3cc4cc(c3O)Oc3ccc(cc3Cl)[C@@H](O)[C@@H]3NC(=O)[C@H](NC(=O)[C@@H]4NC2=O)c2ccc(O)c(c2)-c2c(O)cc(O)cc2[C@@H](C(=O)NC2CN4CCC2CC4)NC3=O)N1 (stereo partly specified)', 'M⁻¹', 22000),
  ('CCCCCCCCCC(=O)N[C@@H]1[C@H](Oc2c3cc4cc2Oc2ccc(cc2Cl)[C@@H](O[C@@H]2O[C@@H](CO)[C@@H](O)[C@H](O)[C@@H]2NC(C)=O)[C@@H]2NC(=O)[C@H](NC(=O)[C@@H]4NC(=O)[C@H]4NC(=O)[C@@H](Cc5ccc(c(Cl)c5)O3)NC(=O)Cc3ccc(O)c(c3)Oc3cc(O)cc4c3)c3ccc(O)c(c3)-c3c(O[C@H]4O[C@H](CO)[C@@H](O)[C@@H](O)[C@@H]4O)cc(O)cc3[C@@H](C(=O)N(C)C)NC2=O)O[C@@H](CO)[C@@H](O)[C@@H]1O', 'M⁻¹', 200000),
  ('CCCCCCCCCC(=O)N[C@@H]1[C@H](Oc2c3cc4cc2Oc2ccc(cc2Cl)[C@@H](O[C@@H]2O[C@@H](CO)[C@@H](O)[C@H](O)[C@@H]2NC(C)=O)[C@@H]2NC(=O)[C@H](NC(=O)[C@@H]4NC(=O)[C@H]4NC(=O)[C@@H](Cc5ccc(c(Cl)c5)O3)NC(=O)[C@H](N)c3ccc(O)c(c3)Oc3cc(O)cc4c3)c3ccc(O)c(c3)-c3c(O[C@H]4O[C@H](CO)[C@@H](O)[C@@H](O)[C@@H]4O)cc(O)cc3[C@@H](C(=O)O)NC2=O)O[C@@H](CO)[C@@H](O)[C@@H]1O', 'M⁻¹', 1100000),
  ('O=C1Cc2ccc(O)c(c2)Oc2cc(O)cc(c2)[C@@H]2NC(=O)[C@@H](Cc3ccc(c(Cl)c3)Oc3cc4cc(c3O)Oc3ccc(cc3Cl)[C@@H](O)[C@@H]3NC(=O)[C@H](NC(=O)[C@@H]4NC2=O)c2ccc(O)c(c2)-c2c(O)cc(O)cc2[C@@H](C(=O)O)NC3=O)N1', 'M⁻¹', 11000);

With those in mind, consider the next compound.
May I ask what KA has been recorded for CCCCCCCCCC(=O)N[C@@H]1[C@H](Oc2c3cc4cc2Oc2ccc(cc2Cl)[C@@H](O[C@@H]2O[C@@H](CO)[C@@H](O)[C@H](O)[C@@H]2NC(C)=O)[C@@H]2NC(=O)[C@H](NC(=O)[C@@H]4NC(=O)[C@H]4NC(=O)[C@@H](Cc5ccc(c(Cl)c5)O3)NC(=O)Cc3ccc(O)c(c3)Oc3cc(O)cc4c3)c3ccc(O)c(c3)-c3c(O[C@H]4O[C@H](CO)[C@@H](O)[C@@H](O)[C@@H]4O)cc(O)cc3[C@@H](C(=O)O)NC2=O)O[C@@H](CO)[C@@H](O)[C@@H]1O ?
130000

* * *

- Tested on: Enterococcus faecalis
- MEASUREMENT_NOTES: Minimal inhibitory concentration of compound against Streptococcus faecalis AACC7080
- Format: functional
OUTCOME_MEASURE: MIC

Would you kindly share the measured MIC for CCCCCCCCCC(=O)N[C@@H]1[C@H](Oc2c3cc4cc2Oc2ccc(cc2Cl)[C@@H](O[C@@H]2O[C@@H](CO)[C@@H](O)[C@H](O)[C@@H]2NC(C)=O)[C@@H]2NC(=O)[C@H](NC(=O)[C@@H]4NC(=O)[C@H]4NC(=O)[C@@H](Cc5ccc(c(Cl)c5)O3)NC(=O)Cc3ccc(O)c(c3)Oc3cc(O)cc4c3)c3ccc(O)c(c3)-c3c(O[C@H]4O[C@H](CO)[C@@H](O)[C@@H](O)[C@@H]4O)cc(O)cc3[C@@H](C(=O)O)NC2=O)O[C@@H](CO)[C@@H](O)[C@@H]1O ?
0.5 µg/mL

* * *

- Tested on: Enterococcus faecalis
- MEASUREMENT_NOTES: Minimal inhibitory concentration of compound against Streptococcus faecalis AACC7080
- Assay type: functional
OUTCOME_MEASURE: MIC (µg/mL)
Give the value, in units of µg/mL, as a plain number.

// known answers, use as guide
INSERT INTO assay_data (molecule, system_tested, obs_value) VALUES
  ('N[C@H]1C(=O)N[C@@H]2Cc3ccc(c(Cl)c3)Oc3cc4cc(c3O)Oc3ccc(cc3Cl)[C@@H](O)[C@@H]3NC(=O)[C@H](NC(=O)[C@@H]4NC(=O)[C@@H](NC2=O)c2cc(O)cc(c2)Oc2cc1ccc2O)c1ccc(O)c(c1)-c1c(O)cc(O)cc1[C@@H](C(=O)NC1CN2CCC1CC2)NC3=O (some centres not stated)', 'Enterococcus faecalis', 0.12),
  ('CCCCCCCCCC(=O)N[C@@H]1[C@H](Oc2c3cc4cc2Oc2ccc(cc2Cl)[C@@H](O[C@@H]2O[C@@H](CO)[C@@H](O)[C@H](O)[C@@H]2NC(C)=O)[C@@H]2NC(=O)[C@H](NC(=O)[C@@H]4NC(=O)[C@H]4NC(=O)[C@@H](Cc5ccc(c(Cl)c5)O3)NC(=O)[C@H](N)c3ccc(O)c(c3)Oc3cc(O)cc4c3)c3ccc(O)c(c3)-c3c(O[C@H]4O[C@H](CO)[C@@H](O)[C@@H](O)[C@@H]4O)cc(O)cc3[C@@H](C(=O)O)NC2=O)O[C@@H](CO)[C@@H](O)[C@@H]1O', 'Enterococcus faecalis', 0.12),
  ('CCCCCCCCCC(=O)N[C@@H]1[C@H](Oc2c3cc4cc2Oc2ccc(cc2Cl)[C@@H](O[C@@H]2O[C@@H](CO)[C@@H](O)[C@H](O)[C@@H]2NC(C)=O)[C@@H]2NC(=O)[C@H](NC(=O)[C@@H]4NC(=O)[C@H]4NC(=O)[C@@H](Cc5ccc(c(Cl)c5)O3)NC(=O)[C@H](N)c3ccc(O)c(c3)Oc3cc(O)cc4c3)c3ccc(O)c(c3)-c3c(O[C@H]4O[C@H](CO)[C@@H](O)[C@@H](O)[C@@H]4O)cc(O)cc3[C@@H](C(=O)N(C)C)NC2=O)O[C@@H](CO)[C@@H](O)[C@@H]1O', 'Enterococcus faecalis', 0.12),
  ('CN(C)CCCNC(=O)[C@H]1NC(=O)[C@H]2NC(=O)[C@H](NC(=O)[C@@H]3NC(=O)[C@H]4NC(=O)[C@@H](Cc5ccc(c(Cl)c5)Oc5cc3cc(c5O)Oc3ccc(cc3Cl)[C@H]2O)NC(=O)Cc2ccc(O)c(c2)Oc2cc(O)cc4c2)c2ccc(O)c(c2)-c2c(O)cc(O)cc21', 'Enterococcus faecalis', 0.12),
  ('O=C1Cc2ccc(O)c(c2)Oc2cc(O)cc(c2)[C@@H]2NC(=O)[C@@H](Cc3ccc(c(Cl)c3)Oc3cc4cc(c3O)Oc3ccc(cc3Cl)[C@@H](O)[C@@H]3NC(=O)[C@H](NC(=O)[C@@H]4NC2=O)c2ccc(O)c(c2)-c2c(O)cc(O)cc2[C@@H](C(=O)NC2CN4CCC2CC4)NC3=O)N1 (some centres not stated)', 'Enterococcus faecalis', 0.25);

Given the molecule CC(=O)N[C@@H]1[C@H](O[C@@H]2c3ccc(c(Cl)c3)Oc3cc4cc(c3O)Oc3ccc(cc3Cl)C[C@H]3NC(=O)Cc5ccc(O)c(c5)Oc5cc(O)cc(c5)[C@H](NC3=O)C(=O)N[C@H]4C(=O)N[C@H]3C(=O)N[C@@H]2C(=O)N[C@H](C(=O)O)c2cc(O)cc(O[C@H]4O[C@H](CO)[C@@H](O)[C@@H](O)[C@@H]4O)c2-c2cc3ccc2O)O[C@@H](CO)[C@@H](O)[C@@H]1O , what is its reported MIC?
4

Also O=C1Cc2ccc(O)c(c2)Oc2cc(O)cc(c2)[C@@H]2NC(=O)[C@@H](Cc3ccc(c(Cl)c3)Oc3cc4cc(c3O)Oc3ccc(cc3Cl)[C@@H](O)[C@@H]3NC(=O)[C@H](NC(=O)[C@@H]4NC2=O)c2ccc(O)c(c2)-c2c(O)cc(O)cc2[C@@H](C(=O)O)NC3=O)N1 ?
0.12
